test: Thermostability (Tm, Tonset, Tagg) by Nanotemper DSF; format: physicochemical; parameters: key: temperatures in °C; details: Average of two replicates; anti-Fel d1 VHH
reported-property: Tagg ø (mean)
Could you keep your reply to the number by itself?

Sample records with Tagg ø (mean):
molecule	Tagg ø (mean)
SDAB22110-3-1-D9-1: anti-Fel d1 VHH clone, SEQ ID NO: 52 (protein) VHH: AVQLVESGGGLVQPGGSLRLSCIISGFTSVSYSIVWFRQAPGKGREGVSCIGSSGGSTDYIDSVKGRFTISRDSAKNTVYLQMDCLKPEDTAVYYCAALRDVYRLCVIDYMNNDYWGQGTQVTVSS	42.78
SDAB22110-4-3-B02: anti-Fel d1 VHH clone, SEQ ID NO: 54 (protein) VHH: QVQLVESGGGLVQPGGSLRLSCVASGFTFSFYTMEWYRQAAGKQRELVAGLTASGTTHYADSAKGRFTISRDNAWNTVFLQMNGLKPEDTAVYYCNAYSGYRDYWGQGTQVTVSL	35.68
SDAB22110-1-1-E4: anti-Fel d1 VHH clone, SEQ ID NO: 51 (protein) VHH: QLQLVESGGGLVQPGGSLRLSCTASGFTFSTAGTSWYRQSPGKARKLVAELSRIGGIANYADSVKGRFTISRDNTRNTVYLQMNSLKPEDTAVYYCKVVTNRNYGFTYWGQGTQVTVSS	39.61
SDAB22110-4-3-G08: anti-Fel d1 VHH clone, SEQ ID NO: 56 (protein) VHH: DVQLVESGGGLVQPGGSLRLSCAASGFTFSLYYMSWYRQVPGKERELVATITSGTHATTYADSVKGRFTISRDNAKNTVSLQMNSLKREDTGVYYCKRTNAGQDPWGQGTQVTVSS	31.74
SDAB22110-3-2-H08: anti-Fel d1 VHH clone, SEQ ID NO: 53 (protein) VHH: QVQLVESGGGLVQPGGSLRLSCAASGFTFSRKGMSWYRQVPGKEREWVARIYSTGEKTDYADSVKGRFTISRDNAKNMVYLDMNSLKPEDTAVYYCKAWGYEYWNQGTQVTVSS	42.30

Consider the molecule shown here: SDAB22110-4-3-E05: anti-Fel d1 VHH clone, SEQ ID NO: 55 (protein) VHH: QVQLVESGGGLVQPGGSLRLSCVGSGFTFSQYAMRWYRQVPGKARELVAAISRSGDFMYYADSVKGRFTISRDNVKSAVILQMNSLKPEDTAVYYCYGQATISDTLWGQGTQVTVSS What is its recorded Tagg ø (mean)?
40.93

The origin of these recorded values is patent US20240352105A1.
